study target: T1, CD137 expressed on the cell surface of HT1080_4-1BB cells (human, UniProt Q07011 24-255)
T1 construct: whole, on cells; species not restated for the HT1080 transfectant
T1 sequence (Q07011 24-255): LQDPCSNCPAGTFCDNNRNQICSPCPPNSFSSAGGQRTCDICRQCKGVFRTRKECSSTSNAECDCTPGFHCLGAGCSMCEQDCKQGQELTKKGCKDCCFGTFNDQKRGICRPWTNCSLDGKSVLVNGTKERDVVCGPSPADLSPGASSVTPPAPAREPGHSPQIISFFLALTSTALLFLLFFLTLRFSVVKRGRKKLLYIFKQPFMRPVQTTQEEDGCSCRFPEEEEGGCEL
procedure details: HT1080_4-1BB cells, imaging; note: test concentration or dose not given here
Entries annotated with measured Cellular binding assay [RFU]
Quick reminder: number only, in RFU, skip the unit.

{"columns": ["binder", "Cellular binding assay [RFU] (RFU)"],
 "data": [
  ["P018.S.14.A.D06 (antibody, V domains shown, V regions on human Ig constant parts; also called AB137_10) VH: QSVEESGGRLVTPGTPLTLTCTVSGFSLSTYAMIWVRQAPGKGLEWIGVVYDNGYISHATWVKGRFTISKTSTTVGLEITSPTTEDTATYFCARSADGSWSTYFNLWGQGTLVTVSS VL: DIVMTQTPASVEAAVGGTVTIKCQASESISNYLAWYQQKPGQPPKLLIYKASTLASGVSSRFKGSGSGTEFTLTISDLESADAATYYCQTNYCCSSSDNGFAFGGGTEVVVK", 1]
]}

GET /values?readout=Cellular binding assay [RFU]&item= P018.S.14.A.A04 (antibody, V domains shown, V regions on human Ig constant parts; also called AB137_9) VH: QSLEESGGRLVTPGTPLTLTCTVSGFSLNDYWMSWVRQAPGKGLEWIGYIDVGGSLYYASWAKGRFTISRTSTTVDLKMTSLTTEDTATYFCARGGLTYGFDLWGPGTLVTVSS VL: DIVMTQTPASVSEPVGGTVTINCQASEDISSYLAWYQQKPGQRPKRLIYGASDLASGVPSRFSASGSGTEYALTISDLESADAATYYCHYYATISGLGVAFGGGTEVVVK
81

GET /values?readout=Cellular binding assay [RFU]&item= P018.S.13.A.A06 (antibody, V domains shown, V regions on human Ig constant parts; also called AB137_5) VH: QSVEESGGRLVTPGTPLTLTCTASGFTISDFHVTWVRQAPGKGLEWIGTIITSASTTAYATWARGRFTISKSSTTVNLKIVSPTTEDTATYFCARSTYTDTSGYYFDFWGQGTLVTVSS VL: AQVLTQTASPVSAAVGGTVIINCQSSQSIYNGNRLSWYQQKPGQPPKLLIYSASTLASGVSSRFKGSGSGTQFTLAISDVQSDDAATYYCLGSYDCDSADCFAFGGGTEVVVE
38

Sourced from patent US20210253725A1
